IC50 values for the compounds below.
# tested.on: Coagulation factor X (Homo sapiens, UniProt P00742)
# Sequence (P00742 41-179 limits assumed): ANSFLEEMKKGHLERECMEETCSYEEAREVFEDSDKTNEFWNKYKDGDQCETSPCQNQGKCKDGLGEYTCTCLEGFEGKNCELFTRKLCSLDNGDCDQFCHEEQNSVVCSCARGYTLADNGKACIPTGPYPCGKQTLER
# Sequence (P00742 235-488 limits assumed): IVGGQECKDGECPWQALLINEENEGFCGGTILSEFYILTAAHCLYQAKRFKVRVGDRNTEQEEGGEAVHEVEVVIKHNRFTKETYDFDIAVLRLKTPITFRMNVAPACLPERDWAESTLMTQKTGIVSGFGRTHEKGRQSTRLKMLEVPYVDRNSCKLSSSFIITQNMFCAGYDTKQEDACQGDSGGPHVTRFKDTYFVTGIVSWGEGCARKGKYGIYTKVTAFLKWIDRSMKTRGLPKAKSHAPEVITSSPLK
# protocol.description: Inhibition of human factor 10a
Note: unit nM is implicit; provide only the numeric part.

Examples with their reported IC50 follow.
| mol | IC50 / nM |
| --- | --- |
| CN1CCc2nc(C(=O)N[C@@H]3CC[C@@H](C(=O)N(C)C)C[C@@H]3NC(=O)c3cc4cc(Cl)ccc4[nH]3)sc2C1 | 840 |
| CN1CCc2nc(C(=O)N[C@@H]3CC[C@H](C(=O)O)C[C@@H]3NC(=O)c3cc4cc(Cl)ccc4[nH]3)sc2C1 | 16 |
| CN1CCc2nc(C(=O)N[C@@H]3CC[C@H](C(=O)N(C)C)C[C@@H]3NC(=O)c3cc4cc(Cl)ccc4[nH]3)sc2C1 | 12 |

Attention now shifts to the item below.
Requested field: IC50. Item: CN1CCc2nc(C(=O)N[C@@H]3CC[C@@H](C(=O)O)C[C@@H]3NC(=O)c3cc4cc(Cl)ccc4[nH]3)sc2C1
110

Data provenance is ChEMBL document CHEMBL1156611.
